- test_system: Full length SHP2 protein (Recombinant Human SHP-2) (Homo sapiens (Human), UniProt Q06124)
- Sequence (Q06124 2-593): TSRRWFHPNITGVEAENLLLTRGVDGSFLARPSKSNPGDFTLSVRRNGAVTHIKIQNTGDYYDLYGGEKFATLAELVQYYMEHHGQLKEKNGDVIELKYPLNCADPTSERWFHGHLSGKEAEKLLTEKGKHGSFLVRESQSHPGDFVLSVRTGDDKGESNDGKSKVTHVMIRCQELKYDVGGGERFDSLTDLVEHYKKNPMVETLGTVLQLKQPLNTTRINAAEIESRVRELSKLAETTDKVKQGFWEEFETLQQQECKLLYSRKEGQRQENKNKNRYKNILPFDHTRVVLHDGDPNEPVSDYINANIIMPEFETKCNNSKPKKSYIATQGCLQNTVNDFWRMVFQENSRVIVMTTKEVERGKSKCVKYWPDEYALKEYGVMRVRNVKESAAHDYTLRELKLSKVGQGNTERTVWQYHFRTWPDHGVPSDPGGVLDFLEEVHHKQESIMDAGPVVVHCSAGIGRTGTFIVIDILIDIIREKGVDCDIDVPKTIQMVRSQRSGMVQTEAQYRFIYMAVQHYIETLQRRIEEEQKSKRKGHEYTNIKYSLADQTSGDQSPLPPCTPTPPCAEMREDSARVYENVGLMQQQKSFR
- protocol_notes: SHP2 biochemical assay (DiFMUP substrate, activating peptide IRSI_2pY)
- condition_label: activating peptide IRSI_2pY 140 nM, DiFMUP, 60 min; read-out: SHP-2 biochemical assay IC50
Structures can show the parent of a compound that is named as a salt.
Quick reference for IC50 among some compounds
property: IC50 (µM)

{"columns": ["compound", "value_relation_sign", "experimental_result"],
 "data": [
  ["COc1c(F)ccc(-n2c(C)nc(N3CCC4(CC3)Cc3ccccc3[C@H]4N)c(C)c2=O)c1F", "=", 0.006],
  ["Cc1nc(N2CCC(C)(N)CC2)c(C2CC2)c(=O)n1-c1cccc(Cl)c1Cl", "=", 12],
  ["Cc1nc(N2CCC3(CC2)CO[C@@H](C)[C@H]3N)c(CCO)c(=O)n1-c1cccc(Cl)c1Cl [Compound 76, Hydrochloride]", "=", 7],
  ["Cc1nc(N2CCC(N)(CCO)CC2)cc(=O)n1-c1cccc(Cl)c1Cl", "=", 0.38],
  ["Cc1c(N2CCO[C@H](CN)C2)nc(C)n(-c2cccc(Cl)c2Cl)c1=O", "=", 16],
  ["Nc1nc(N2CCC3(CC2)CC(F)(F)C[C@H]3N)cc(=O)n1-c1cccc(Cl)c1Cl", "=", 1.1],
  ["Cc1c(N2CCC3(CC2)CO[C@@H](C)[C@H]3N)nc(C)n(-c2cccc(Cl)c2Cl)c1=O (single isomer, unassigned) [Compound 23a]", "=", 3.4],
  ["Cc1c(N2CCC3(CC2)Cc2ccccc2[C@H]3N)nc(C)n(-c2ccc(F)c(F)c2Cl)c1=O", "=", 0.006],
  ["Cc1nc(N2CCC3(CC2)Cc2ccccc2[C@H]3N)cc(=O)n1-c1cccc(Cl)c1Cl (single isomer, unassigned) [Compound 119b]", "=", 0.0008],
  ["Cc1c(N2CCC(C)(N)CC2)nc(C)n(-c2cccc3ncsc23)c1=O", ">", 10],
  ["Cc1c(N2CCC(C)(CN)CC2)nc(C)n(-c2ccc3ccccc3c2Cl)c1=O", "=", 5.6],
  ["Cc1c(N2CCC(C)(N)CC2)nc(C)n(-c2cccc(Cl)c2Cl)c1=O", "=", 1],
  ["Cc1c(N2CCC3(CC2)Cc2ccccc2[C@H]3N)nc(C)n(-c2ccc(F)c(Cl)c2Cl)c1=O", "=", 0.002],
  ["Cc1c(N2CCC3(CC2)CC3CN)nc(C)n(-c2cccc(Cl)c2Cl)c1=O (stereo not drawn)", "=", 4.6],
  ["Cc1c(N2CCC3(CC2)CO[C@@H](C)[C@H]3N)nc(C)n(-c2ccc(F)c(Cl)c2Cl)c1=O", "=", 0.028],
  ["Cc1nc(N2CCC3(CC2)Cc2ccccc2[C@H]3N)cc(=O)n1-c1cccc(Cl)c1Cl (single isomer, unassigned) [Compound 119a]", "=", 0.27],
  ["Cc1c(N2CCC3(CC2)Cc2ccccc2[C@H]3N)nc(C)n(-c2cccc(F)c2Cl)c1=O", "=", 0.004],
  ["Cc1nc(N2CCC3(CCC[C@H]3N)CC2)cc(=O)n1-c1cccc(Cl)c1Cl (single isomer, unassigned) [Compound 62a]", ">", 10]
]}

###

Measured clearance values are reported for all entries that follow.
- protocol_notes: Pharmacokinetics in mouse (oral / intravenous)
- Assay type: in vivo
- condition_label: mouse, plasma, intravenous; female CD1 mice

{"columns": ["molecule", "clearance, mL/min/kg"],
 "data": [
  ["Cc1c(N2CCC3(CC2)Cc2ncccc2[C@H]3N)nc(C)n(-c2cccc(Cl)c2Cl)c1=O (single isomer, unassigned) [Compound 66b]", 8.33],
  ["Cc1nc(N2CCC3(CC2)CO[C@@H](C)[C@H]3N)cc(=O)n1-c1cccc(Cl)c1Cl (single isomer, unassigned)", 8],
  ["Cc1nc(N2CCC3(CC2)CO[C@@H](C)[C@H]3N)c(CO)nc1-c1cccc(Cl)c1Cl [RMC-4550, reference compound]", 20],
  ["Cc1c(N2CCC3(CC2)Cc2ccccc2[C@H]3N)nc(C)n(-c2cccc(Cl)c2Cl)c1=O [Compound 74a]", 8.33],
  ["Cc1c(N2CCC3(CC2)CO[C@@H](C)[C@H]3N)nc(C)n(-c2cccc(Cl)c2Cl)c1=O (single isomer, unassigned) [Compound 23b]", 15.5],
  ["Cc1c(N2CCC3(CC2)Oc2ccccc2[C@H]3N)nc(C)n(-c2cccc(Cl)c2Cl)c1=O (single isomer, unassigned) [Compound 81b]", 2.5]
]}

###

- test_system: Full length SHP2 protein (Recombinant Human SHP-2) (Homo sapiens (Human), UniProt Q06124)
- protocol_notes: SHP2 biochemical assay (DiFMUP substrate, activating peptide IRSI_2pY)
- condition_label: SHP-2 biochemical assay IC50 (μM), activating peptide IRSI_2pY 140 nM, DiFMUP, 60 min
Below, each entry is listed with its recorded log10(IC50).
property: log10(IC50) (log10 of the value in µM)

{"columns": ["compound", "property", "experimental_result"],
 "data": [
  ["Cc1nc(N(C)[C@H]2CC[C@@](C)(N)CC2)cc(=O)n1-c1cccc(Cl)c1Cl (single isomer, unassigned) [Compound 71b]", "log10(IC50)", 1.30],
  ["COc1c(N2CCC3(CC2)CO[C@@H](C)[C@H]3N)nc(C)n(-c2cccc(Cl)c2Cl)c1=O (single isomer, unassigned) [Compound 73b]", "log10(IC50)", -0.04],
  ["Cc1c(N2CCC3(CC2)Cc2ncccc2[C@H]3N)nc(C)n(-c2cccc(Cl)c2Cl)c1=O (single isomer, unassigned) [Compound 66b]", "log10(IC50)", -3.00],
  ["[2H]C([2H])([2H])c1c(N2CCC3(CC2)CO[C@@H](C)[C@H]3N)nc(C)n(-c2cccc(Cl)c2Cl)c1=O (single isomer, unassigned) [Compound 63a]", "log10(IC50)", 0.78],
  ["Cc1c(N2CCC3(CCC[C@H]3N)CC2)nc(N)n(-c2cccc(Cl)c2Cl)c1=O (single isomer, unassigned) [Compound 78d]", "log10(IC50)", -0.72],
  ["Cc1nc(N2CCC3(CCC[C@H]3N)CC2)cc(=O)n1-c1cccc(Cl)c1Cl (single isomer, unassigned) [Compound 62b]", "log10(IC50)", -1.09],
  ["Cc1c(N2CCC3(CC2)CO[C@@H](C)[C@H]3N)nc(C)n(-c2cccc(Cl)c2Cl)c1=O (single isomer, unassigned) [Compound 23b]", "log10(IC50)", -2.05],
  ["Cc1nc(N2CC[C@@H](N)[C@@H](O)C2)cc(=O)n1-c1cccc(Cl)c1Cl (racemic) [Compound 30]", "log10(IC50)", 1.11],
  ["Cc1nc(C2=CC[C@@](C)(N)CC2)cc(=O)n1-c1cccc(Cl)c1Cl (racemic) [Compound 6a]", "log10(IC50)", 1.28],
  ["[2H]C([2H])([2H])c1c(N2CCC(C)(N)CC2)nc(C)n(-c2cccc(Cl)c2Cl)c1=O [Compound 94]", "log10(IC50)", 0.15],
  ["[2H]C([2H])([2H])c1c(N2CCC3(CC2)CO[C@@H](C)[C@H]3N)nc(C)n(-c2cccc(Cl)c2Cl)c1=O [Compound 63]", "log10(IC50)", -1.41],
  ["Cc1c(N2CCC3(CC2)Oc2cnccc2[C@H]3N)nc(C)n(-c2cccc(Cl)c2Cl)c1=O (single isomer, unassigned) [Compound 80a]", "log10(IC50)", 0.15],
  ["[2H]C([2H])([2H])c1c(N2CCC3(CC2)Cc2ccccc2[C@H]3N)nc(C)n(-c2cccc(Cl)c2Cl)c1=O [Compound 106]", "log10(IC50)", -2.22],
  ["Cc1nc(N2CCC3(CC2)CO[C@@H](C)[C@H]3N)cc(=O)n1-c1c(F)ccc(Cl)c1Cl (single isomer, unassigned) [Compound 32b]", "log10(IC50)", 0.28],
  ["Cc1c(N2CCC3(CC2)Cc2ccccc2[C@H]3N)nc(C)n(-c2cccc(Cl)c2Cl)c1=O (atropisomer, axis not shown) [Compound 74b]", "log10(IC50)", -1.59],
  ["Cc1nc(N2CCC(C)(N3CC[C@H](O)C3)CC2)cc(=O)n1-c1cccc(Cl)c1Cl (racemic) [Compound 72b]", "log10(IC50)", 0.81],
  ["Cc1c(N2CCC3(CC2)Cc2ccccc2[C@H]3N)nc(C)n(-c2cccc(C#N)c2Cl)c1=O [Compound 108]", "log10(IC50)", -2.15],
  ["Cc1c(N2CCC3(CC2)Oc2ncccc2[C@H]3N)nc(C)n(-c2cccc(Cl)c2Cl)c1=O [Compound 79a]", "log10(IC50)", -0.52]
]}

###

- protocol_notes: Pharmacokinetics in mouse (oral / intravenous)
- Type: in vivo
- condition_label: mouse, plasma, intravenous; female CD1 mice; read-out: Vd ss

{"columns": ["molecule", "Vd"],
 "data": [
  ["Cc1c(N2CCC3(CC2)Oc2ccccc2[C@H]3N)nc(C)n(-c2cccc(Cl)c2Cl)c1=O (single isomer, unassigned) [Compound 81b]", "0.68 L/kg"],
  ["Cc1nc(N2CCC3(CC2)CO[C@@H](C)[C@H]3N)cc(=O)n1-c1cccc(Cl)c1Cl (single isomer, unassigned) [Compound 3b]", "2.77 L/kg"],
  ["Cc1c(N2CCC3(CC2)Cc2ccccc2[C@H]3N)nc(C)n(-c2cccc(Cl)c2Cl)c1=O [Compound 74a]", "5.1 L/kg"],
  ["Cc1c(N2CCC3(CC2)CO[C@@H](C)[C@H]3N)nc(C)n(-c2cccc(Cl)c2Cl)c1=O (single isomer, unassigned) [Compound 23b]", "4.64 L/kg"],
  ["Cc1c(N2CCC3(CC2)Cc2ncccc2[C@H]3N)nc(C)n(-c2cccc(Cl)c2Cl)c1=O (single isomer, unassigned) [Compound 66b]", "1.96 L/kg"]
]}

Hey, just so you know, these numbers are from patent US11001561B2.
